Exercise: for every item that follows, state its recorded MIC.
- System: Staphylococcus epidermidis
- assay-protocol: Antibacterial activity against methicillin-sensitive Staphylococcus epidermidis 12-6 after 18 hrs by CLSI broth microdilution method
- Format: functional
- test-settings: 12-6, 18 h
Answers are plain numbers, in µg/mL.

>  <structure>
CC(C)NC(=N)c1ccc2cc(-c3cncc(-c4cc5ccc(C(=N)NC(C)C)cc5[nH]4)c3)[nH]c2c1

>  <unit>
µg/mL

>  <MIC>
2

$$$$
>  <structure>
CNC(=N)c1ccc2cc(-c3cncc(-c4cc5ccc(C(=N)NC)cc5[nH]4)c3)[nH]c2c1

>  <unit>
µg/mL

>  <MIC>
8

$$$$

Okay, here is my list. What is MIC for each of these?
1. CNC(=N)c1ccc2cc(-c3ccc(-c4cc5ccc(C(=N)NC)cc5[nH]4)cc3)[nH]c2c1
2. COCCNC(=N)c1ccc2cc(-c3ccc(-c4cc5ccc(C(=N)NCCOC)cc5[nH]4)cc3)[nH]c2c1

1: 0.12; 2: 0.125

###

- System: Escherichia coli
- assay-protocol: Antibacterial activity against extended-spectrum beta-lactamase harboring Escherichia coli 12-15 after 18 hrs by CLSI broth microdilution method
- Format: functional
- test-settings: 12-15, 18 h
Exercise: for every item that follows, state its recorded MIC.
Numbers only, in µg/mL.

>  <compound>
CN1CCC2(CC1)CCN(C(=N)c1ccc3cc(-c4ccc(-c5cc6ccc(C(=N)N7CCC8(CCN(C)CC8)C7)cc6[nH]5)cc4)[nH]c3c1)C2

>  <MIC [µg/mL]>
16

$$$$
>  <compound>
CCN(C)C(=N)c1ccc2cc(-c3ccc(-c4cc5ccc(C(=N)N(C)CC)cc5[nH]4)cc3)[nH]c2c1

>  <MIC [µg/mL]>
2

$$$$
>  <compound>
CN1CCN(C(=N)c2ccc3cc(-c4ccc(-c5cc6ccc(C(=N)N7CCN(C)CC7)cc6[nH]5)cc4)[nH]c3c2)CC1

>  <MIC [µg/mL]>
8

$$$$
>  <compound>
CCNC(=N)c1ccc2cc(-c3ccc(-c4cc5ccc(C(=N)NCC)cc5[nH]4)cc3)[nH]c2c1

>  <MIC [µg/mL]>
16

$$$$

Okay, here is my list. What is MIC for each of these?
1. CCC(CC)NC(=N)c1ccc2cc(-c3ccc(-c4cc5ccc(C(=N)NC(CC)CC)cc5[nH]4)cc3)[nH]c2c1
2. c1cc2cc(-c3ccc(-c4cc5ccc(C6=NCCCN6)cc5[nH]4)cc3)[nH]c2cc1C1=NCCCN1

1: 8; 2: 8

Okay, here is my list. What is MIC for each of these?
1. C[C@H]1COc2c(N3CCN(C)CC3)c(F)cc3c(=O)c(C(=O)O)cn1c23.C[C@H]1COc2c(N3CCN(C)CC3)c(F)cc3c(=O)c(C(=O)O)cn1c23.O [LEVOFLOXACIN]
2. N=C(c1ccc2cc(-c3ccc(-c4cc5ccc(C(=N)N6CC=CCC6)cc5[nH]4)cc3)[nH]c2c1)N1CC=CCC1

[16, 8]

###

Exercise: for every item that follows, state its recorded MIC.
- Tested on: Escherichia coli
- assay-protocol: Antibacterial activity against extended-spectrum beta-lactamase harboring Escherichia coli 12-15 after 18 hrs by CLSI broth microdilution method
- Assay type: functional
- test-settings: 12-15, 18 h
One number for each entry, in µg/mL.

>  <structure>
CN(C)C(=N)c1ccc2cc(-c3ccc(-c4cc5ccc(C(=N)N(C)C)cc5[nH]4)nc3)[nH]c2c1

>  <endpoint-result>
4

$$$$
>  <structure>
CN(C)C(=N)c1ccc2cc(-c3ccc(Oc4ccc(-c5cc6ccc(C(=N)N(C)C)cc6[nH]5)cc4)cc3)[nH]c2c1

>  <endpoint-result>
8

$$$$
>  <structure>
COCCNC(=N)c1ccc2cc(-c3ccc(-c4cc5ccc(C(=N)NCCOC)cc5[nH]4)cc3)[nH]c2c1

>  <endpoint-result>
4

$$$$
>  <structure>
CN(C)C(=N)c1ccc2cc(-c3cnc(-c4cc5ccc(C(=N)N(C)C)cc5[nH]4)cn3)[nH]c2c1

>  <endpoint-result>
16

$$$$

Okay, here is my list. What is MIC for each of these?
1. N=C(c1ccc2cc(-c3ccc(-c4cc5ccc(C(=N)N6CCC(N7CCCC7)CC6)cc5[nH]4)cc3)[nH]c2c1)N1CCC(N2CCCC2)CC1
2. CN(C)C(=N)c1ccc2cc(-c3ccc4cc(-c5cc6ccc(C(=N)N(C)C)cc6[nH]5)ccc4c3)[nH]c2c1

1: 16; 2: 64

The recorded MIC for "CN(C)C(=N)c1ccc2cc(-c3cccc(-c4cc5ccc(C(=N)N(C)C)cc5[nH]4)c3)[nH]c2c1" is 64

###

- Tested on: Staphylococcus epidermidis
- assay-protocol: Antibacterial activity against methicillin-sensitive Staphylococcus epidermidis 12-6 after 18 hrs by CLSI broth microdilution method
- Type: functional
- test-settings: 12-6, 18 h
Exercise: for every item that follows, state its recorded MIC.
Answers are plain numbers, in µg/mL.

Answered cases to consult:
>  <compound>
N=C(c1ccc2cc(-c3ccc(-c4cc5ccc(C(=N)N6CCC(N7CCCC7)CC6)cc5[nH]4)cc3)[nH]c2c1)N1CCC(N2CCCC2)CC1

>  <recorded-metric>
MIC

>  <unit>
µg/mL

>  <endpoint-result>
8

$$$$
>  <compound>
CN(C)C(=N)c1ccc2cc(-c3ccc(-c4cc5ccc(C(=N)N(C)C)cc5[nH]4)cc3)[nH]c2c1

>  <recorded-metric>
MIC

>  <unit>
µg/mL

>  <endpoint-result>
0.125

$$$$
>  <compound>
N=C(c1ccc2cc(-c3ccc(-c4cc5ccc(C(=N)N6CCOCC6)cc5[nH]4)cc3)[nH]c2c1)N1CCOCC1

>  <recorded-metric>
MIC

>  <unit>
µg/mL

>  <endpoint-result>
0.5

$$$$
>  <compound>
CCC(C)NC(=N)c1ccc2cc(-c3ccc(-c4cc5ccc(C(=N)NC(C)CC)cc5[nH]4)cc3)[nH]c2c1 (stereo not drawn)

>  <recorded-metric>
MIC

>  <unit>
µg/mL

>  <endpoint-result>
1

$$$$
>  <compound>
CN(C)CCNC(=N)c1ccc2cc(-c3ccc(-c4cc5ccc(C(=N)NCCN(C)C)cc5[nH]4)cc3)[nH]c2c1

>  <recorded-metric>
MIC

>  <unit>
µg/mL

>  <endpoint-result>
0.5

$$$$

Okay, here is my list. What is MIC for each of these?
1. CCN(C)C(=N)c1ccc2cc(-c3ccc(-c4cc5ccc(C(=N)N(C)CC)cc5[nH]4)cc3)[nH]c2c1
2. CN(C)C(=N)c1ccc2cc(-c3cncc(-c4cc5ccc(C(=N)N(C)C)cc5[nH]4)c3)[nH]c2c1
3. CN(C)C(=N)c1ccc2cc(-c3cnc(-c4cc5ccc(C(=N)N(C)C)cc5[nH]4)cn3)[nH]c2c1

[0.25, 0.25, 4]

###

- Test system: Klebsiella aerogenes
- assay-protocol: Antibacterial activity against Enterobacter aerogenes ATCC 13048 after 18 hrs by CLSI broth microdilution method
- Type: functional
- test-settings: ATCC 13048, 18 h
recorded-metric: MIC (µg/mL)
Answers are plain numbers, in µg/mL.

>  <structure>
CN(C)C(=N)c1ccc2cc(-c3cnc(-c4cc5ccc(C(=N)N(C)C)cc5[nH]4)cn3)[nH]c2c1

>  <recorded-metric>
MIC

>  <unit>
µg/mL

>  <endpoint-result>
16

$$$$
>  <structure>
N=C(c1ccc2cc(-c3ccc(-c4cc5ccc(C(=N)N6CCCC6)cc5[nH]4)cc3)[nH]c2c1)N1CCCC1

>  <recorded-metric>
MIC

>  <unit>
µg/mL

>  <endpoint-result>
8

$$$$
>  <structure>
COCCNC(=N)c1ccc2cc(-c3ccc(-c4cc5ccc(C(=N)NCCOC)cc5[nH]4)cc3)[nH]c2c1

>  <recorded-metric>
MIC

>  <unit>
µg/mL

>  <endpoint-result>
8

$$$$
>  <structure>
N=C(c1ccc2cc(-c3ccc(-c4cc5ccc(C(=N)N6CCC6)cc5[nH]4)cc3)[nH]c2c1)N1CCC1

>  <recorded-metric>
MIC

>  <unit>
µg/mL

>  <endpoint-result>
4

$$$$

Okay, here is my list. What is MIC for each of these?
1. CCN(C)C(=N)c1ccc2cc(-c3ccc(-c4cc5ccc(C(=N)N(C)CC)cc5[nH]4)cc3)[nH]c2c1
2. N=C(c1ccc2cc(-c3ccc(-c4cc5ccc(C(=N)N6CC=CCC6)cc5[nH]4)cc3)[nH]c2c1)N1CC=CCC1

2
8

###

- System: Enterococcus faecium
- assay-protocol: Antibacterial activity against vancomycin-resistant Enterococcus faecium ATCC 700221 after 18 hrs by CLSI broth microdilution method
- Format: functional
- test-settings: ATCC 700221, 18 h
recorded-metric: MIC (µg/mL)
Give bare numbers, in µg/mL.

Answered cases to consult:
>  <structure>
N=C(c1ccc2cc(-c3ccc(-c4cc5ccc(C(=N)N6CCCC6)cc5[nH]4)cc3)[nH]c2c1)N1CCCC1

>  <assay-target>
Enterococcus faecium

>  <recorded-metric>
MIC

>  <endpoint-result>
4

$$$$
>  <structure>
c1cc2cc(-c3ccc(-c4cc5ccc(C6=NCCCN6)cc5[nH]4)cc3)[nH]c2cc1C1=NCCCN1

>  <assay-target>
Enterococcus faecium

>  <recorded-metric>
MIC

>  <endpoint-result>
0.25

$$$$
>  <structure>
N=C(c1ccc2cc(-c3ccc(-c4cc5ccc(C(=N)N6CCC(N7CCCC7)CC6)cc5[nH]4)cc3)[nH]c2c1)N1CCC(N2CCCC2)CC1

>  <assay-target>
Enterococcus faecium

>  <recorded-metric>
MIC

>  <endpoint-result>
16

$$$$
>  <structure>
CN(C)C(=N)c1ccc2cc(-c3ccc(Oc4ccc(-c5cc6ccc(C(=N)N(C)C)cc6[nH]5)cc4)cc3)[nH]c2c1

>  <assay-target>
Enterococcus faecium

>  <recorded-metric>
MIC

>  <endpoint-result>
2

$$$$
>  <structure>
CN(C)CCCNC(=N)c1ccc2cc(-c3ccc(-c4cc5ccc(C(=N)NCCCN(C)C)cc5[nH]4)cc3)[nH]c2c1

>  <assay-target>
Enterococcus faecium

>  <recorded-metric>
MIC

>  <endpoint-result>
4

$$$$

The recorded MIC for "CN(C)C(=N)c1ccc2cc(-c3cccc(-c4cc5ccc(C(=N)N(C)C)cc5[nH]4)c3)[nH]c2c1" is 16
